// data source = PubChem BioAssay (NCI)

Tested on: SK-MEL-2 melanoma
protocol.details: NCI-60 one-dose screen, 48 h
applied.conditions: 10 µM unless noted
The panel holds about 83,000 compounds, 20% with a hit somewhere; the sample as a whole holds those more often. The source made the active and inactive calls. How the source made its calls: active means growth percent below 10; inactive means the rest.
I would appreciate it if you answered using one of these outcomes: Yes = active, No = inactive

-- ask Tell me the assay call for `COc1cc(C(=O)n2nc(NCCCc3ccccc3)c3cc(N)ccc32)cc(OC)c1OC` please.
-- reply No

* * *

Test system: HCT-15 colon
protocol.details: NCI-60 one-dose screen, 48 h (100 = growth as untreated, 0 = no growth, -100 = all killed)
applied.conditions: 10 µM unless noted
Compounds without any hit were thinned out: in the full panel of roughly 83,000, 20% have a hit. Activity calls are given as the source filed them. The calls were made as follows: active = growth percent below 10; inactive = the rest.
For each of the compounds below, state its growth.

Check out these entries, answers already filled in.
// recorded growth for `COc1ccc(C(=O)/C=C/Nc2cc(-c3ccccc3)nn2-c2ccccc2)cc1` : 88.1% (inactive)

Recorded growth (compound OC1CSSC1Cn1cnc2c(Nc3ccc(F)c(Cl)c3)ncnc21 (stereo not given) ): 92.5% (inactive)

Recorded result, `CCOC(=O)/C=C1\S/C(=N\Nc2cc(=O)[nH]c3ccc(OC)cc23)N(c2ccccc2)C1=O` , growth: 93.3% (inactive)

Reported growth of `Cn1cc(-c2csc(-c3cn(CCO)c4ccc(F)cc34)n2)c2cccnc21` : 41.5% (inactive)

Next:
Lookup result for `Nc1n[nH]c2cccc(C#Cc3cccc(C(=O)Nc4ccc(Cl)c(C(F)(F)F)c4)c3)c12` ; measured growth: 56.4% (inactive)

* * *

System: NCI/ADR-RES ovarian
protocol.details: NCI-60 one-dose screen, 48 h
applied.conditions: 10 µM unless noted
This is part of a sample that, as a whole, favours compounds with a hit. Of some 83,000 tested, about 20% had one in any assay. Calls of active or inactive are those of the source. How the source made its calls: active means growth percent below 10; inactive means the rest.
Write down the outcome that applies. Available outcomes: t for active, f for inactive

-- ask Check the results log: what was the call for `COc1ccc(N/N=C/c2ccc3c(c2)Sc2ccccc2N3C)cc1` ?
-- reply f

-- ask Assay result, entry `CN1CCN(Cc2ccc(NC(=O)c3cncc(C#Cc4c(N)ncc5cc(F)ccc45)c3)cc2C(F)(F)F)CC1` — outcome?
-- reply f

-- ask // outcome(item) with item = `CCN1CCN(C(=O)[C@]23CC[C@@H](C)[C@H](C)[C@@H]2C2=CC[C@@H]4[C@@]5(C)C/C(=C/c6ccncc6)C(=O)C(C)(C)[C@@H]5CC[C@@]4(C)[C@]2(C)CC3)CC1`
-- reply f

-- ask GET /call?item= `Cc1cc(C)n(C(=O)CSc2nc3sc4c(c3c(=O)n2-c2ccccc2)CCCCC4)n1` returns the recorded outcome of this test.
-- reply f

-- ask What did this assay record as the result for `CCOC(=O)/C=C1\S/C(=N\Nc2cc(=O)[nH]c3ccc(OC)cc23)N(c2ccccc2)C1=O` ?
-- reply f

-- ask Assay result, entry `COc1ccc(/C=C/C(=O)c2ccc(-n3cc(CN4CCN(c5cc6c(cc5F)c(=O)c(C(=O)O)cn6C5CC5)CC4)nn3)cc2)cc1` — outcome?
-- reply f

-- ask Check the results log: what was the call for `C=C(C)[C@@H]1CC[C@]2(COC(=O)c3cccnc3)CC[C@]3(C)[C@H](CC[C@@H]4[C@@]5(C)CCCN(C(=O)c6cccnc6)C(C)(C)[C@@H]5CC[C@]43C)[C@@H]12` ?
-- reply f

-- ask In this assay, the call recorded for `COc1cccc(CNc2nnc(C)c(C)n2)c1O` was what?
-- reply f

-- ask Returns: the outcome recorded for `CC/C(=C(/c1ccc(Cl)cc1)c1ccc(OCCN(CC)CC)cc1)c1ccc(OC)cc1` in this assay.
-- reply f

-- ask Outcome? `COc1cc(OC)cc(C(=O)Nc2cnc(Nc3ccc(N4CCOCC4)nc3)nc2Oc2ccc(C(F)(F)F)cc2)c1`
-- reply f

New cases:
-- ask Just curious, what result did `CCN1CCN(c2cc(C(=O)Nc3cccc(Nc4ccc5c(OC)cccc5n4)c3)cc(C(F)(F)F)c2)CC1` get here?
-- reply t

-- ask Recorded test call requested for `CN(C)C(=O)OCc1ccc2c(Cl)cc(Cl)c(O)c2n1`
-- reply f

-- ask For `CCN1CCN(c2nc(NNC(=O)c3ccc(OC)cc3)nc(N3CCN(C(c4ccccc4)c4ccccc4)CC3)n2)CC1` , what call appears in the results of this test?
-- reply f

* * *

Test system: HCT-116 colon
protocol.details: NCI-60 one-dose screen, 48 h
applied.conditions: 10 µM unless noted
This is part of a sample that, as a whole, favours compounds with a hit. Of some 83,000 tested, about 20% had one in any assay. The source made the active and inactive calls. The calls were made as follows: active = growth percent below 10; inactive = the rest.
Permitted responses: active, inactive

Please review the entries below; each comes with its answer.
-- ask Status in this test for `COC(=O)CNC(=O)c1ccc(NC(=O)c2[nH]c(C)c(Cl)c2Cl)c(O[C@H]2CCNC2)c1` ?
-- reply inactive

-- ask Look up the recorded call for `Cc1c(N2CCCCC2)[nH]c2ccccc12` in this test.
-- reply inactive

-- ask How did this test come out for `Nc1ncc(-c2ccc3ncnc(N4CCc5cc(F)c(Cl)cc54)c3c2)cc1C=O` ?
-- reply inactive

Continuing:
-- ask Could you please tell me the result logged for O=C1CCC(C(=O)N/N=C/c2ccc([N+](=O)[O-])cc2)N1 (stereo not given) in this assay?
-- reply inactive

-- ask What did the test return for `COc1cc(/C=C/c2cc(/C=C/c3ccc(O)c(OC)c3)n(C(=O)Nc3ccc(C)cc3C)n2)ccc1O` ?
-- reply active

* * *

System: A549/ATCC NSCLC
protocol.details: NCI-60 one-dose screen, 48 h
applied.conditions: 10 µM unless noted
This is part of a sample that, as a whole, favours compounds with a hit. Of some 83,000 tested, about 20% had one in any assay. Active and inactive are the calls of the source. How the source made its calls: active means growth percent below 10; inactive means the rest.
Hi there, use one of these labels in your reply, thanks! active, inactive

-- ask Call for entry `O=C(Nc1ncc(Cc2cc(C(F)(F)F)ccc2Cl)s1)C(=S)N1CCOCC1` :
-- reply inactive

-- ask Test call, this molecule: Cc1[nH]c(C(=O)Nc2ccccc2OC2CCNC2)c(Cl)c1Cl (stereo unspecified)
-- reply inactive

-- ask Each molecule tested received a call. Report the one for `O=c1ccc2c(ccc3ncccc32)o1` .
-- reply inactive

-- ask Returns: the outcome recorded for CC(C)=CCC[C@](C)(O)C1CC[C@]2(C)[C@@H]1CC[C@@H]1[C@@]3(C)CC/C(=N\OCCC#N)C(C)(C)[C@@H]3CC[C@]12C (stereo partly specified) in this assay.
-- reply inactive

-- ask Could you please tell me the result logged for COC1CC(O)C2=C(CC3C(/C(C)=C\CC=C(C)C)CCC3(C)O2)C1=O (stereo unspecified) in this assay?
-- reply inactive

* * *

System: UACC-257 melanoma
protocol.details: NCI-60 one-dose screen, 48 h (100 = growth as untreated, 0 = no growth, -100 = all killed)
applied.conditions: 10 µM unless noted
This is part of a sample that, as a whole, favours compounds with a hit. Of some 83,000 tested, about 20% had one in any assay.
readout.kind: growth (%)
Numbers only, in %.

Per the record, `O=C(CNc1ncco1)Nc1ccc(S(=O)(=O)c2ccc(NC(=O)CNc3ncco3)cc2)cc1` has growth of 10.3

Go through the list and state growth for each entry.
1. O=C1/C(=C/c2ccccc2)COc2ccc(O)cc21
2. O=c1[nH]c(CN2CCN(c3ccccc3)CC2)nc2c(Br)cc(Br)cc12
3. CCCN1C(=O)N(CCC)C2C1NC(=S)N2/N=C/C=C/c1ccccc1OC (centres undefined)
4. CCCCN(CCC#N)C(N)=O
5. CC(CN)[C@@H]1CC[C@]2(CO)CC[C@]3(C)[C@H](CC[C@@H]4[C@@]5(C)CCC(NCCO)C(C)(C)[C@@H]5CC[C@]43C)[C@@H]12 (some centres undefined)
6. Nc1n[nH]c2cccc(C#Cc3cccc(C(=O)Nc4ccc(Cl)c(C(F)(F)F)c4)c3)c12
7. CC(C)(C)n1cc(-c2ccnc(NCCNS(=O)(=O)c3ccc(Br)cc3)c2)c(-c2cccc(O)c2)n1
8. O=[N+]([O-])c1ccc(Oc2cccc3c(Oc4ccc([N+](=O)[O-])cc4[N+](=O)[O-])cccc23)c([N+](=O)[O-])c1

-- reply
1. 98.2
2. 96.2
3. 60.5
4. 101
5. 84.9
6. 48.2
7. 36
8. 91.6

* * *

For each entry below, report its growth value.
Test system: HCT-116 colon
protocol.details: NCI-60 one-dose screen, 48 h (100 = growth as untreated, 0 = no growth, -100 = all killed)
applied.conditions: 10 µM unless noted
About 83,000 compounds went through this panel and 20% of them were active in at least one assay; those are over-represented in the sample as a whole.
Numbers only, in %.

growth on HCT-116 colon for C=C(CNCCc1ccc(O)cc1)[C@@H]1CC[C@]2(CO)CC[C@]3(C)[C@H](CC[C@@H]4[C@@]5(C)CCC(N)C(C)(C)[C@@H]5CC[C@]43C)[C@@H]12 (stereo not given in full) is -65.9

Item: `NCCCCCNc1noc(Cc2c[nH]c3cc(Br)ccc23)n1` | System: HCT-116 colon | growth: 23

GET /values?item= O=C1C=CC2(O)OC(c3ccccc3)CC(=O)C2=C1O (stereo not given) &system= HCT-116 colon returns growth: 82.9

Kindly note: HCT-116 colon, `COc1cccc(CNc2nnc(C)c(C)n2)c1O` , growth value reported: 100

Case `NCCNc1ccc([N+](=O)[O-])cc1` , HCT-116 colon, growth recorded as 98.8

Batch: growth for all items listed.
1. COc1ccc(-c2ccc(-c3ccc(C(=N)N)o3)o2)cc1
2. CCOC(=O)c1c(N)sc2cc(O)ccc12
3. N#C/C(Sc1nc2sc3c(c2c(=O)n1Cc1ccccc1)CCCC3)=C1/SC=C(c2ccc(Cl)cc2)N1c1ccccc1

-- reply
1: -5.19; 2: 98.5; 3: 83.5

For every item below, please supply its growth.
1. CNC1=C(Br)C(=O)c2c(C(=O)OC)c(C)nc(C)c2C1=O
2. CCCCCN(CCCCC)CC(O)c1c(Cl)ccc2ccccc12 (stereo not given)

-- reply
[25.3, 37.2]
